Biological target: T1, GPR39 (G protein coupled receptor 39) (UniProt O43194 1-453, limits assumed)
T1 sequence (looked up): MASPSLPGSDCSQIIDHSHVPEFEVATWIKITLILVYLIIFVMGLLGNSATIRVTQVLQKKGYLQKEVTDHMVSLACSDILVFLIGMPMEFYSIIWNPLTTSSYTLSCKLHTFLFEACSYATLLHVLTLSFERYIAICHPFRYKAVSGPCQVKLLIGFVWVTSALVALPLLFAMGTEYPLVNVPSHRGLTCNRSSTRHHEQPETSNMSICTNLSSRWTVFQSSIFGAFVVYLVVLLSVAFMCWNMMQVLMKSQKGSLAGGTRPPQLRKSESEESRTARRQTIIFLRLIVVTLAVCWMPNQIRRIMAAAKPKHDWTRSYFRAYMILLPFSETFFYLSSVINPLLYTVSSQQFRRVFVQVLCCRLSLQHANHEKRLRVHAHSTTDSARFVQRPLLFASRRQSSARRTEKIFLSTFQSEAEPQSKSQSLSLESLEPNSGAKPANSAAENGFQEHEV
Test: cell-based or functional assay
Square brackets hold non-standard residues; d marks the D form. Ends that are not written are not given here. * marks the point of attachment. Biotin = O=C1N[C@H]2[C@H](CS[C@H]2CCCCC(=O)*)N1; dPhe(4-Me) = Cc1ccc(C[C@@H](N)C(=O)O)cc1; Trt = c1ccc(C(c2ccccc2)(c2ccccc2)*)cc1; Benzhydryl = c1ccc(C(c2ccccc2)*)cc1; 2‑cyclohexylethyl = C1CCC(CC*)CC1; Octanoyl = CCCCCCCC(=O)*
We begin with a simple list: items and their reported EC50; SRE-luciferase reporter.
Readout name: EC50; SRE-luciferase reporter (nM)

[[record]]
binder = "GSH(Trt)K(Octanoyl)FY [HKFY-37]"
value = 1840

[[record]]
binder = "Biotin-H(Benzhydryl)K(Octanoyl)[dPhe(4-Me)]Y-OH [HKFY-72]"
value = 11

[[record]]
binder = "H(Benzhydryl)K(Octanoyl)FY [HKFY-33]"
value = 150

[[record]]
binder = "H(2‑cyclohexylethyl)K(Octanoyl)FY [HKFY-11]"
value = 57800

